For each of the compounds below, state its %Inh.
Tested on: PDPK1;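 further: KINOMEscan kinase panel screen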
Conditions: concentration: 1 μM, replicates: in singlicate; n = 1
Your answer is read as %, so omit the unit and give the number.

Data request: Param item = COc1cc2c(cc1OC[C@@H](O)CO)ncc1c3ccc(C#N)cc3[nH]c21 ; retrieve measured %Inh.
Data returned: 8

Data request: %Inh lookup needed for O=C1NC(=O)C(N2CCc3ccccc32)=C1c1cccc(Cl)c1 , thanks.
Data returned: 0

Data request: For the compound Nc1nc(-c2ccc3c(N)n[nH]c3c2)cc(N2CCCC2)n1 , what %Inh is on record?
Data returned: 67

Data request: Suppose we examine the compound N#Cc1c(N2CCOCC2)sc(-c2ccn[nH]2)c1-c1ccc(Cl)cc1 ; what %Inh value has been reported?
Data returned: 0

Data request: Quick one: %Inh for CCc1nc(-c2cccc(C)c2)c(-c2ccnc(NCc3ccccc3)c2)s1 ?
Data returned: 3

Data request: Query (compound): Cc1c(Cn2c(C)nn3c(=O)cc(N4CCOC(C)C4)nc23)cccc1C(F)(F)F (centres unmarked) ; field requested: %Inh
Data returned: 8

Data request: Which %Inh value is on record for NCC(NC(=O)c1cc(-c2cn[nH]c2)c(-c2ccnc3[nH]ccc23)s1)c1ccccc1.O=C(O)C(F)(F)F.O=C(O)C(F)(F)F (centres unmarked) ?
Data returned: 0

Data request: So what's the measured %Inh for this one? NS(=O)(=O)c1cccc(-c2ccc3nccc(-c4cccc(S(N)(=O)=O)c4)c3c2)c1
Data returned: 0

Data request: Can you share its %Inh? I mean this compound: COCCNC(=O)c1ccc(-c2cc(C(=O)NC3CC3)cc(F)c2C)cc1
Data returned: 8

Data request: May I ask what %Inh has been recorded for CCn1cnc2c(N)ncnc21 ?
Data returned: 11

Data request: Name the reported %Inh value associated with the compound CN(C1=C(c2ccccc2)C(=O)NC1=O)c1ccccc1
Data returned: 5

Data request: Could you share which %Inh value was measured for Cn1ccc2ncnc(Oc3ccc(NC(=O)Nc4ccncc4)c(Cl)c3)c21 ?
Data returned: 36

Data request: Quick check: %Inh of COc1cc2c(cc1OCCN1CCN(C)CC1)ncc1c3ccc(C#N)cc3[nH]c21 ?
Data returned: 0

Data request: For the compound shown here, Cc1c2ccc(N(C)c3ccnc(Nc4cccc(S(N)(=O)=O)c4)n3)cc2nn1Cc1ccccc1.Cl.Cl , give the reported %Inh.
Data returned: 0

Data request: Entry under review: Fc1ccc(-c2ncn(CCCN3CCOCC3)c2-c2ccccn2)cc1 . Reported %Inh?
Data returned: 0

Data request: Look up %Inh for this compound: O=C(NOCC1CC1)c1ccc(F)c(F)c1Nc1ccc(I)cc1Cl
Data returned: 0

Data request: %Inh lookup needed for COc1ccc(Nc2nccc(N3CCC(NC(=O)Nc4cccc(C(C)=O)c4)C3)n2)cc1 (centres unmarked) , thanks.
Data returned: 7

Data request: Field request: %Inh | item: CC(C)Oc1ccc2c(-c3ccnc(Nc4ccc(N5CCN(C)CC5)cc4)n3)cnn2n1
Data returned: 27

Data request: Data request, read-out %Inh, for COc1cc(Nc2nccc(N3CCC(NC(=O)c4cccc(NC(C)=O)c4)C3)n2)cc(OC)c1OC (centres unmarked)
Data returned: 30

Data request: Dear colleague, I am looking for the recorded %Inh of the following compound: Cc1nnc(-c2ccc3ncc(-c4ccc(S(C)=O)cc4)n3c2)o1 (centres unmarked)
Data returned: 0

Data request: Name the recorded %Inh for Cl.Nc1ncnc2occ(-c3ccc(NC(=O)Nc4cc(C(F)(F)F)ccc4F)cc3)c12 .
Data returned: 33

Data request: Fill in: %Inh of COc1ccc(COc2cc(-n3cnc4ccccc43)sc2C(N)=O)cc1 is ___
Data returned: 3

Data request: Return reported %Inh; argument: Cc1cccc(Cn2ccn3c(=O)cc(N4CCOCC4)nc23)c1
Data returned: 11

Data request: Requested field: %Inh. Item: Nc1nccc(-c2c(-c3ccc(F)cc3)ncn2C2CCN(CC(F)(F)F)CC2)n1
Data returned: 0

Data request: So what's the measured %Inh for this one? Cc1nnc(-c2ccc3occ(-c4ccc(C(C)O)cc4)c3c2)o1 (centres unmarked)
Data returned: 0

Data request: Look at this compound and give its reported %Inh. O=c1cc(N2CCOCC2)nc2n(Cc3cccc(Cl)c3Cl)c(C3CC3)nn12
Data returned: 14

Data request: Query (compound): CN1c2ccc(NCc3ccc(F)cc3)cc2-c2c(cnn2C)S1(=O)=O ; field requested: %Inh
Data returned: 0

Data request: Please report the recorded %Inh for Cc1ccc(NC(=O)c2ccnc(N3CCN(C)CC3)c2)cc1-c1ccc(C(=O)NCC2CC2)cc1 .
Data returned: 0

Data request: Quick check: %Inh of CCCCCc1nc2c(N)ncnc2n1CCCCC ?
Data returned: 0

Data request: Using the record for O=C(Nc1cccc(-c2nn3ncccc3c2-c2ccnc(Nc3cccc(C(F)(F)F)c3)n2)c1)c1c(F)cccc1F , report its %Inh.
Data returned: 0

Data request: Consider the compound NS(=O)(=O)CCc1cccc(Nc2nccc(-c3c(-c4cccc(NC(=O)c5c(F)cccc5F)c4)nn4ccccc34)n2)c1 and give its measured %Inh.
Data returned: 1

Data request: What measured %Inh goes with COc1ccc(Nc2ncc(C#N)c(Nc3ccccc3C(N)=O)n2)cc1N1CCN(C)CC1.Cl ?
Data returned: 37

Data request: Could you tell me which %Inh is on file for CN1c2ccc(CNc3ccc(F)cc3)cc2-c2c(cnn2C)S1(=O)=O ?
Data returned: 12

Data request: Need %Inh of CC(=O)Nc1ccc(COc2ccc(Nc3ccnc4cc(-c5ccccn5)ccc34)cc2)cc1.Cl , thanks.
Data returned: 0

Data request: Any idea what %Inh was measured for [2H]C([2H])(c1cccc(C(F)(F)F)c1C)n1ccn2c(=O)nc(N3CCOCC3)cc12 ?
Data returned: 0
